# Test system: A. baumannii ATCC 19606
# procedure_text: microbe, parasite or virus in culture
# Assay type: cell-based
# test_conditions: Acinetobacter baumannii, ATCC19606, read-out: Minimum inhibitory concentration (MIC), A. baumannii ATCC 19606
value_type: MIC

# example entries with known answers
| molecule | tested_system | MIC |
| --- | --- | --- |
| O=C(O)c1c(F)ccc2c1OB(O)[C@@H](NC(=O)[C@H](NC(=O)N1CCN(S(=O)(=O)c3ccc(O)c(O)c3Cl)C1=O)c1ccc(P(=O)(O)O)cc1)C2 [Example 506] | A. baumannii ATCC 19606 | < 1 µg/mL |
| O=C(O)c1c(F)ccc2c1OB(O)[C@@H](NC(=O)[C@H](NC(=O)N1CCN(C3CCN(C(=O)Nc4cc(F)c(F)c(O)c4F)CC3)C(=O)C1=O)c1cc(F)c(O)c(O)c1Cl)C2 [Example 491] | A. baumannii ATCC 19606 | < 1 µg/mL |

Here is another molecule to look at.
Recorded MIC (molecule O=C(O)c1c(F)ccc2c1OB(O)[C@@H](NC(=O)C(NC(=O)N1CCN(C3CCN(C(=O)Nc4ccc(F)c(O)c4F)CC3)C(=O)C1=O)c1cc(F)c(O)c(O)c1Cl)C2 (stereo partly drawn) [Example 486] ): < 1 µg/mL

Attribution: patent US20240270762A1
